The measurements presented in this section are drawn from the NIST ThermoML archive (doi:10.1021/je200195q).

# METHOD NOTES: activity coefficient (dimensionless); of the first substance listed, at infinite dilution; xn = mol fraction of the nth substance listed
# ASSAY SETUP: 333.15 K; 101 kPa; Liquid; Chromatography; x1 = 0
ASSAY ENDPOINT: activity coefficient
Format: numeric value only, no unit, no commentary.

A selection of reference data follows.
1) CC(C)O [propan-2-ol] + CCCCCCCCCCn1cc[n+](CCCCCCCCCC)c1C.O=S(=O)([N-]S(=O)(=O)C(F)(F)F)C(F)(F)F = 1.14
2) C=O [methanal] + CCCCCCCCCCn1cc[n+](CCCCCCCCCC)c1C.O=S(=O)([N-]S(=O)(=O)C(F)(F)F)C(F)(F)F = 0.08
3) c1ccccc1 [benzene] + CCCCCCCCCCn1cc[n+](CCCCCCCCCC)c1C.O=S(=O)([N-]S(=O)(=O)C(F)(F)F)C(F)(F)F = 0.431
4) CCCC(C)=O [pentan-2-one] + CCCCCCCCCCn1cc[n+](CCCCCCCCCC)c1C.O=S(=O)([N-]S(=O)(=O)C(F)(F)F)C(F)(F)F = 0.404
5) C1CCCCCC1 [cycloheptane] + CCCCCCCCCCn1cc[n+](CCCCCCCCCC)c1C.O=S(=O)([N-]S(=O)(=O)C(F)(F)F)C(F)(F)F = 4.46

The compound listed as Cc1ccccc1C [1,2-dimethylbenzene] + CCCCCCCCCCn1cc[n+](CCCCCCCCCC)c1C.O=S(=O)([N-]S(=O)(=O)C(F)(F)F)C(F)(F)F shows activity coefficient equal to 0.616

The compound listed as C=CCCCC [hex-1-ene] + CCCCCCCCCCn1cc[n+](CCCCCCCCCC)c1C.O=S(=O)([N-]S(=O)(=O)C(F)(F)F)C(F)(F)F shows activity coefficient equal to 1.38

The compound listed as Cc1cccc(C)c1 [1,3-dimethylbenzene] + CCCCCCCCCCn1cc[n+](CCCCCCCCCC)c1C.O=S(=O)([N-]S(=O)(=O)C(F)(F)F)C(F)(F)F shows activity coefficient equal to 0.653

The compound listed as c1ccncc1 [pyridine] + CCCCCCCCCCn1cc[n+](CCCCCCCCCC)c1C.O=S(=O)([N-]S(=O)(=O)C(F)(F)F)C(F)(F)F shows activity coefficient equal to 0.331

The compound listed as CC#N [acetonitrile] + CCCCCCCCCCn1cc[n+](CCCCCCCCCC)c1C.O=S(=O)([N-]S(=O)(=O)C(F)(F)F)C(F)(F)F shows activity coefficient equal to 0.453

The compound listed as CCC(=O)CC [pentan-3-one] + CCCCCCCCCCn1cc[n+](CCCCCCCCCC)c1C.O=S(=O)([N-]S(=O)(=O)C(F)(F)F)C(F)(F)F shows activity coefficient equal to 0.378

The compound listed as ClC(Cl)Cl [trichloromethane] + CCCCCCCCCCn1cc[n+](CCCCCCCCCC)c1C.O=S(=O)([N-]S(=O)(=O)C(F)(F)F)C(F)(F)F shows activity coefficient equal to 0.395

The compound listed as c1ccsc1 [thiophene] + CCCCCCCCCCn1cc[n+](CCCCCCCCCC)c1C.O=S(=O)([N-]S(=O)(=O)C(F)(F)F)C(F)(F)F shows activity coefficient equal to 0.423

====

# METHOD NOTES: activity coefficient (dimensionless); of the first substance listed, at infinite dilution; xn = mol fraction of the nth substance listed
# ASSAY SETUP: 323.1 K; 101 kPa; Liquid; Chromatography; x1 = 0
ASSAY ENDPOINT: activity coefficient
Format: numeric value only, no unit, no commentary.

The molecule listed as C=CCCCC [hex-1-ene] + CCCCCCCCCCn1cc[n+](CCCCCCCCCC)c1C.O=S(=O)([N-]S(=O)(=O)C(F)(F)F)C(F)(F)F shows activity coefficient equal to 1.39

The molecule listed as Cc1ccccc1 [toluene] + CCCCCCCCCCn1cc[n+](CCCCCCCCCC)c1C.O=S(=O)([N-]S(=O)(=O)C(F)(F)F)C(F)(F)F shows activity coefficient equal to 0.512

The molecule listed as CCCCCCC [heptane] + CCCCCCCCCCn1cc[n+](CCCCCCCCCC)c1C.O=S(=O)([N-]S(=O)(=O)C(F)(F)F)C(F)(F)F shows activity coefficient equal to 2.53

The molecule listed as CCCCCCCC [octane] + CCCCCCCCCCn1cc[n+](CCCCCCCCCC)c1C.O=S(=O)([N-]S(=O)(=O)C(F)(F)F)C(F)(F)F shows activity coefficient equal to 2.54

The molecule listed as ClC(Cl)(Cl)Cl [tetrachloromethane] + CCCCCCCCCCn1cc[n+](CCCCCCCCCC)c1C.O=S(=O)([N-]S(=O)(=O)C(F)(F)F)C(F)(F)F shows activity coefficient equal to 0.776

The molecule listed as C1COCCO1 [1,4-dioxane] + CCCCCCCCCCn1cc[n+](CCCCCCCCCC)c1C.O=S(=O)([N-]S(=O)(=O)C(F)(F)F)C(F)(F)F shows activity coefficient equal to 0.463

The molecule listed as C1CCCCC1 [cyclohexane] + CCCCCCCCCCn1cc[n+](CCCCCCCCCC)c1C.O=S(=O)([N-]S(=O)(=O)C(F)(F)F)C(F)(F)F shows activity coefficient equal to 1.32

The molecule listed as ClC(Cl)Cl [trichloromethane] + CCCCCCCCCCn1cc[n+](CCCCCCCCCC)c1C.O=S(=O)([N-]S(=O)(=O)C(F)(F)F)C(F)(F)F shows activity coefficient equal to 0.374

The molecule listed as C[N+](=O)[O-] [nitromethane] + CCCCCCCCCCn1cc[n+](CCCCCCCCCC)c1C.O=S(=O)([N-]S(=O)(=O)C(F)(F)F)C(F)(F)F shows activity coefficient equal to 0.596

The molecule listed as CCCCCCCCC [nonane] + CCCCCCCCCCn1cc[n+](CCCCCCCCCC)c1C.O=S(=O)([N-]S(=O)(=O)C(F)(F)F)C(F)(F)F shows activity coefficient equal to 3.31

The molecule listed as CCc1ccccc1 [ethylbenzene] + CCCCCCCCCCn1cc[n+](CCCCCCCCCC)c1C.O=S(=O)([N-]S(=O)(=O)C(F)(F)F)C(F)(F)F shows activity coefficient equal to 0.652

The molecule listed as CCO [ethanol] + CCCCCCCCCCn1cc[n+](CCCCCCCCCC)c1C.O=S(=O)([N-]S(=O)(=O)C(F)(F)F)C(F)(F)F shows activity coefficient equal to 1.27

The molecule listed as CCOCC [diethyl ether] + CCCCCCCCCCn1cc[n+](CCCCCCCCCC)c1C.O=S(=O)([N-]S(=O)(=O)C(F)(F)F)C(F)(F)F shows activity coefficient equal to 0.746
